Reported IC50 is given for each of the following compounds.
# TGT: Estrogen receptor beta (Homo sapiens)
# Sequence (Q92731 whole entry): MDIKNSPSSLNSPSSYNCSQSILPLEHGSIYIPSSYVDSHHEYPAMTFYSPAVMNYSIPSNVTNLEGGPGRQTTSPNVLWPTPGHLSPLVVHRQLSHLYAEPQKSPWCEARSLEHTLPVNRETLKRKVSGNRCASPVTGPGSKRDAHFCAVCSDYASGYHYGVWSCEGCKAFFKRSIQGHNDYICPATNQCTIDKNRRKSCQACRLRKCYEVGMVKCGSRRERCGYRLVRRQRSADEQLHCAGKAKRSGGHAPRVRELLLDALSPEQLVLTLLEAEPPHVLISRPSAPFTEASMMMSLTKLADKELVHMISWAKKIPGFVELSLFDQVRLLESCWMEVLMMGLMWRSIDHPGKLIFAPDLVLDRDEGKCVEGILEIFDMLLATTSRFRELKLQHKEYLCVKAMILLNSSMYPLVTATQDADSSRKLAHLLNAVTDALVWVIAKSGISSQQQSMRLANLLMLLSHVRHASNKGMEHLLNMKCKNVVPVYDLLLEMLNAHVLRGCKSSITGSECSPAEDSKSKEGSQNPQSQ
Active and inactive are the calls of the source.
TEST_READOUT: IC50

> print(dat)
                    structure.smiles.string  observed.measurement
1  CC(=N)/C(C#N)=C(/O)CSc1nnnn1-c1ccc(C)cc1      13.7 µM (active)
2  COc1ccc2c(c1)c(=O)oc1cc(OCC(=O)NC3CCCCC3)ccc12      7.51 µM (active)
3  Cc1ccc(-n2c(=O)c(C#N)cc3c(=O)n4cccc(C)c4nc32)cc1      25.4 µM (active)
4  CCCC1=NN2C(=N)/C(=C\c3ccc(SCc4ccco4)o3)C(=O)N=C2S1      2.65 µM (active)
